Entry source: PubChem BioAssay (NCI)

Measured GI50 values are reported for all entries that follow.
# Test system: UACC-257 melanoma
# testName: NCI tumour cell line growth inhibition, 48 h

Consider the reported GI50 for these compounds:
compound: O=C1c2nsnc2C(=O)c2c(F)c(F)c(F)c(F)c21
GI50: 1.61 µM

compound: COc1ccc(C(=O)COC(=O)[C@H](C[Se][Se]C[C@H](NC(=O)c2ccc(Br)cc2F)C(=O)OCC(=O)c2ccc(OC)cc2)NC(=O)c2ccc(Br)cc2F)cc1
GI50: 2.25 µM

compound: O=C1c2ccccc2S(=O)(=O)N1CSC(=S)N1CCCCC1
GI50: > 100 µM

# next compound below
Entry CC1COc2c(N3CCN(C)CC3)c(F)cc3c(=O)c(C(=O)O)cn1c23 (centres undefined) , GI50 reported as > 100 µM

----------
Measured TGI values are reported for all entries that follow.
# System: NCI-H460 lung
# testName: NCI tumour cell line growth inhibition, 48 h

molecule: Nc1cc(N2CCCC2)nc(=O)n1-c1ccccc1
valueObserved: > 100 µM

molecule: NCCN1C(=O)CN=C(c2ccc(Cl)cc2)c2cc(Cl)ccc21
valueObserved: 34.4 µM

molecule: COc1cc2cccc(N)c2cc1OC
valueObserved: > 100 µM

Entry COc1cc(C2C(C#N)=C(N)OC3=C2CCS(=O)(=O)c2ccc(C)cc23)cc(OC)c1OC (stereo not drawn) , TGI reported as > 100 µM

Entry "CC1(C)Cc2c(C#N)c(N)c3c(c2CO1)C(=O)OC3=O" , TGI reported as > 100 µM

Entry COC(=O)C(=O)C(C(=O)C(=O)Nc1nc2ccc(C)cc2s1)c1nc2ccc([N+](=O)[O-])cc2[nH]c1=O (stereo not drawn) , TGI reported as > 100 µM

Entry Cc1ccc(C(SCC(N)C(=O)O)(c2ccc(C)cc2)c2ccc(C)cc2)cc1 (stereo not drawn) , TGI reported as 12 µM

Entry "COC(=O)[C@@H]1CN(C(C)=O)C(=O)N1C(=O)OCc1ccccc1" , TGI reported as > 100 µM

Entry CCCCCCCCOCC(O)COC(=O)CCCCCCC (stereo not drawn) , TGI reported as > 100 µM

Entry CCCC(=O)NC1CCc2cc(OC)c(OC)c(OC)c2-c2ccc(OC)c(=O)cc21 (stereo not drawn) , TGI reported as > 100 µM

Entry Clc1cc(Cl)cc(C2ON=C(c3ccccc3)N2C23CC4CC(CC(C4)C2)C3)c1 (stereo not drawn) , TGI reported as > 10 µM

Entry "Cc1cc2c(cc1C)[n+](=O)c(C(=O)C/C(=N/OCCCc1ccccc1)C(=O)Nc1cc(Cl)ccc1Cl)c(C)n2[O-]" , TGI reported as > 100 µM

----------
# Tested on: SF-295 CNS
# testName: NCI tumour cell line growth inhibition, 48 h
Measured TGI values are reported for all entries that follow.

Consider the reported TGI for these compounds:
compound: N#C/C(C(=O)Nc1ccc(Cl)cc1)=C(/N)N1CCCCC1
TGI: > 100 µM
//
compound: CC(=O)Nc1cc(N(CCOS(C)(=O)=O)CCOS(C)(=O)=O)ccc1N=O
TGI: > 100 µM
//
compound: CC(C)(C)Nc1noc(=O)n1C(C)(C)C
TGI: > 100 µM

Entry COC(CC1(/C=C/O[Si](C(C)C)(C(C)C)C(C)C)C(=O)N(C)c2ccccc21)OC (configuration not stated) , TGI reported as > 100 µM

Entry "CS(=O)(=O)Nc1ccc(-c2cc(-c3ccccc3)cc(C(N)=O)c2N)cc1" , TGI reported as > 25 µM

Entry "Cc1nc2c(=O)n(-c3ccccc3)c3ccccc3c2o1" , TGI reported as > 100 µM

Entry "C=CCSC1=N/C(=C\c2cccs2)C(=O)N1CC=C" , TGI reported as > 100 µM

Entry "COc1cccc(/C=N/[N-]C(N)=O)c1[O-].[Ni+2].[OH3+].c1ccc(-c2ccccn2)nc1" , TGI reported as > 100 µM

Entry "O=CNc1ncn[nH]1" , TGI reported as > 100 µM

Entry "Cc1ccc(-c2cc(C(F)(F)F)nn2-c2ccc(S(N)(=O)=O)cc2)cc1" , TGI reported as 55.4 µM

Entry "c1ccc(CNCCCCNCCCNCc2ccccc2)cc1" , TGI reported as > 100 µM

Entry "CC(=O)NC1=C(NCCN(C)C)C(=O)c2ccccc2C1=O" , TGI reported as > 50 µM
